# target_system: rhVEGF165 (recombinant human vascular endothelial growth factor 165) (human, UniProt P15692-4 27-191)
# experimental_protocol: affinity capillary electrophoresis
Field: Kd. Provide a value for each of the binders that follow.
Answers are plain numbers, in nM.

Query :: Quick check: Kd of ATTCTGGGGAGTGGTACGTAAGCAGTGCCACCACGGTTAT (ssDNA) [R 2] ?
Result :: 72

Query :: Which Kd is reported for this binder? GGAAGCCCGCTGTGACATCTGGAGCCGGTTCCCGAGCCA (ssDNA) [C 1]
Result :: 49

Query :: What value of Kd has been recorded for this entry: TGGCTGTTATTTCTCTCGGCCTCAGATCTTGGGCCCAACA (ssDNA) [C 3]
Result :: 66

Query :: For GTCTGTACCAATCTAAAAGTGTATATTATATCTACGAGCCT (ssDNA) [R 1] , what is its reported Kd?
Result :: 53

Below are 2 binders. Give each one its Kd.
1. CCTTGTCATGATAGCTATGTTTCAGCCAACCATACCCGCT (ssDNA) [R 3]
2. CGAGGATATCCGATTGTGGGTGACGTATTGGACACCTTCCCG (ssDNA) [C 2]

Result ::
1: 22; 2: 21
